Measured MIC accompanies every entry in the list below.
System: Escherichia coli
Measurement Description: Antimicrobial activity against Escherichia coli DH10B harboring beta-lactamase KPC-2 T237C mutant by agar dilution method
Format: functional
Experimental Parameters: K-12 DH10B
Measurement Type: MIC

>  <Compound>
C[C@@H](O)[C@H]1C(=O)N2C(C(=O)O)=C(S[C@@H]3CN[C@H](CNS(N)(=O)=O)C3)[C@H](C)[C@H]12 [DORIPENEM]

>  <Measured Result>
0.06 µg/mL

$$$$
>  <Compound>
C[C@@H](O)[C@H]1C(=O)N2C(C(=O)O)=C(S[C@@H]3CN[C@H](C(=O)Nc4cccc(C(=O)O)c4)C3)[C@H](C)[C@H]12

>  <Measured Result>
0.06 µg/mL

$$$$
>  <Compound>
CC(=O)OCC1=C(C(=O)O)N2C(=O)[C@@H](NC(=O)Cc3cccs3)[C@H]2SC1 [CEPHALOTHIN]

>  <Measured Result>
4 µg/mL

$$$$
>  <Compound>
CC1(C)S[C@@H]2[C@H](NC(=O)[C@H](N)c3ccccc3)C(=O)N2[C@H]1C(=O)O [AMPICILLIN]

>  <Measured Result>
4 µg/mL

$$$$
>  <Compound>
C[C@@H](O)[C@H]1C(=O)N2C(C(=O)O)=C(S[C@@H]3CN[C@H](C(=O)N(C)C)C3)[C@H](C)[C@H]12 [MEROPENEM]

>  <Measured Result>
0.06 µg/mL

$$$$
>  <Compound>
CO/N=C(\C(=O)N[C@@H]1C(=O)N2C(C(=O)O)=C(COC(C)=O)CS[C@H]12)c1csc(N)n1 [CEFOTAXIME]

>  <Measured Result>
0.06 µg/mL

$$$$
>  <Compound>
CCN1CCN(C(=O)N[C@@H](C(=O)N[C@@H]2C(=O)N3[C@@H]2SC(C)(C)[C@@H]3C(=O)O)c2ccccc2)C(=O)C1=O [PIPERACILLIN]

>  <Measured Result>
4 µg/mL

$$$$

These entries and their values trace back to ChEMBL document CHEMBL1629686.
